# Assay text: Volume of distribution at steady state in rat at 2 mg/kg, iv
# Format: ADME, organism-based
# Set-up: dose 2 mg/kg, route intravenous
# Settings: in vivo, read-out: Vdss
Assay readout: Vd (L/kg)
Write it as a number; the unit L/kg goes unstated.

Return reported Vd; argument: NS(=O)(=O)NC[C@H]1COc2cc(Cl)ccc2O1
0.39

###

# Assay text: Half life in rat at 10 mg/kg, po
# Type: ADME, organism-based
# Parameters: dose 10 mg/kg, route oral
# Settings: in vivo
Assay readout: half-life (h)
Report as a plain number; the unit h is understood.

Consider the molecule NS(=O)(=O)NC[C@H]1COc2cc(Cl)ccc2O1 and give its measured half-life.
8.2

###

# Assay text: Clearance in rat at 2 mg/kg, iv
# Format: ADME, organism-based
# Design: dose 2 mg/kg, route intravenous
# Settings: in vivo
Assay readout: clearance
Reply with the number, then its unit.

Which clearance value is on record for NS(=O)(=O)NC[C@H]1COc2cc(Cl)ccc2O1 [JNJ-26489112] ?
1.6 mL/min/kg

###

# Target entity: Sodium channel protein type 2 subunit alpha (Rattus norvegicus, UniProt P04775)
# Sequence (P04775 whole entry): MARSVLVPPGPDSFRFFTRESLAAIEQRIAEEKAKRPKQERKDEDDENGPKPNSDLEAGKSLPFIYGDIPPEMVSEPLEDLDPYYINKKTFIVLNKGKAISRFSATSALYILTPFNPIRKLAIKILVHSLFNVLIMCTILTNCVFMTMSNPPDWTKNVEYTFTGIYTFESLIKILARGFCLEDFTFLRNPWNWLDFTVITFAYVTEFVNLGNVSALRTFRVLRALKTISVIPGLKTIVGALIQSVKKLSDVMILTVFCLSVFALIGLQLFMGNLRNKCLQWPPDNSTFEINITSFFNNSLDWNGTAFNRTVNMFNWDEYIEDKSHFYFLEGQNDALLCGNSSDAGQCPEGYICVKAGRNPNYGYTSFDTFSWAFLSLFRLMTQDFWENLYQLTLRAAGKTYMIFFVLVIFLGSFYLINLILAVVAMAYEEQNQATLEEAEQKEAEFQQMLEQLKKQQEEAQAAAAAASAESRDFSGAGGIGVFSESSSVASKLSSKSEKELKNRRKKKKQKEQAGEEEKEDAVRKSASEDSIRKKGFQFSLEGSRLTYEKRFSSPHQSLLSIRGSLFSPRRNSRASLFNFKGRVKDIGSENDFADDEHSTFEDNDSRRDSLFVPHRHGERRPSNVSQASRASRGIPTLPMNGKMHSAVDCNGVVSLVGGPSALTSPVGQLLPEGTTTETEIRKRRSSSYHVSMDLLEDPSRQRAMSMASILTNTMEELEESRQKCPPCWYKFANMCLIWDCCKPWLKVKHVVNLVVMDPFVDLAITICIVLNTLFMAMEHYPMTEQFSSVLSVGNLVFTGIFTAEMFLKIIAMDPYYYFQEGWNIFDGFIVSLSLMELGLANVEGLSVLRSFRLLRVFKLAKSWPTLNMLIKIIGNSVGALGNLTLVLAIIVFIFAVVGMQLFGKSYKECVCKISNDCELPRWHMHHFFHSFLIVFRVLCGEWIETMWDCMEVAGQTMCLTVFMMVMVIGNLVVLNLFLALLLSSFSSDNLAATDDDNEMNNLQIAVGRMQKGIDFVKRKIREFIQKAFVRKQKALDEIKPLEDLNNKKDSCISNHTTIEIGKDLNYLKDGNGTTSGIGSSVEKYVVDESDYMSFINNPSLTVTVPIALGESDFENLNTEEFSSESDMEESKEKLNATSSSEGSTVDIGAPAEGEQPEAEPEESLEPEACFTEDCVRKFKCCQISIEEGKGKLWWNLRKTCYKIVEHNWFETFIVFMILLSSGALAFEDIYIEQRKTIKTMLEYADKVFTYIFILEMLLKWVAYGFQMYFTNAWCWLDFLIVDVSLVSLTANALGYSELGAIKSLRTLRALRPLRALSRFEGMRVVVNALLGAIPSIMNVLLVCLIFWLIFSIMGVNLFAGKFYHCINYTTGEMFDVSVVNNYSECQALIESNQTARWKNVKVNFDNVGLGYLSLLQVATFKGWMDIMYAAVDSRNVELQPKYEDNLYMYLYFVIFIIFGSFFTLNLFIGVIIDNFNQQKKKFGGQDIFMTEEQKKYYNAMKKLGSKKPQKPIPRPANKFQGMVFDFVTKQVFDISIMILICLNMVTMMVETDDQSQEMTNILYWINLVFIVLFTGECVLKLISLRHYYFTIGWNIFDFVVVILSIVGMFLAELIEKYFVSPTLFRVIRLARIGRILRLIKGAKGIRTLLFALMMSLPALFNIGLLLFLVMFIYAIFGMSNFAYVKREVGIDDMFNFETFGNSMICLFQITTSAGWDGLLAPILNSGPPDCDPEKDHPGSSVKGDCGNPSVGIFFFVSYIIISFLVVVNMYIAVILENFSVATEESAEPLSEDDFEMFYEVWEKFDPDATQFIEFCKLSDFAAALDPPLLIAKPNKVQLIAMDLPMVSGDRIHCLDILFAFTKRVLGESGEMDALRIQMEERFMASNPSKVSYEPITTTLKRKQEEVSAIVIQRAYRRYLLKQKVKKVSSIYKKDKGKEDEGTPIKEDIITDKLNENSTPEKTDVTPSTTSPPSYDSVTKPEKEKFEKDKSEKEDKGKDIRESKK
# Assay text: Inhibition of rat Nav1.2 expressed in CHL1610 cells at -67 mV after 2 to 3 mins by whole-cell patch-clamp assay
Assay readout: IC50 (µM)
Quick note: give the figure in µM, leave out the unit.

Record NS(=O)(=O)NC[C@H]1COc2cc(Cl)ccc2O1 : what is its IC50 with Sodium channel protein type 2 subunit alpha (Rattus norvegicus, UniProt P04775)?
36

###

# Assay text: Volume of distribution at steady state in beagle dog at 2 mg/kg, iv
# Format: ADME, organism-based, Canis lupus familiaris
# Set-up: dose 2 mg/kg, route intravenous
# Settings: in vivo, read-out: Vdss
Assay readout: Vd

Return reported Vd; argument: NS(=O)(=O)NC[C@H]1COc2cc(Cl)ccc2O1 [JNJ-26489112]
0.63 L/kg

Data provenance: ChEMBL document CHEMBL3091339
